Measured stoichiometry N, listed per entry for reference.
- experimentalTarget: T1, KIX domain of CREB-binding protein (residues 586–672 of mouse CBP) (mouse, UniProt P45481 586-672)
- T1 construct: KIX domain, residues 586-672 of mouse CBP; 6xHis-tag and thrombin cleavage site at the N-terminus; source: E. coli BL21(DE3)pLysS, purified (Ni-NTA, gel filtration on Superdex 200 pg)
- T1 sequence (P45481 586-672): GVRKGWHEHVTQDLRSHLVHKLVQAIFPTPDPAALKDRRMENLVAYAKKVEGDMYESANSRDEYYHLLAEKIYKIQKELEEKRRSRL
- assayExplanation: ITC; 600 μM MLL solution titrated into the cell containing 45 µM KIX; 30 °C; 20 mM Tris–acetate pH 7.0, 50 mM NaCl; one-site binding model
- particulars: both partners purified
I'd appreciate a reply containing only the number, no unit.

*Q* Recorded stoichiometry N for GNILPSDIMDFVLRNLPSMQALGESPESY (MLL TAD, residues 2842-2869 of human MLL, with the substitutions; Tyr residue attached at the C-terminus for concentration determination by UV absorption; also called K2855R/T2857L double mutant; source: E. coli BL21(DE3), purified (Ni-NTA); not shown: His6, N-terminal, kept) [His-tag–GB1–MLL TAD K2855R/T2857L] , please?
*A* 1.09

*Q* Note, next up: GNILPSDIMDFVLKNRPSMQALGESPESY (MLL TAD, residues 2842-2869 of human MLL, with the substitution; Tyr residue attached at the C-terminus for concentration determination by UV absorption; source: E. coli BL21(DE3), purified (Ni-NTA); not shown: His6, N-terminal, kept) [His-tag–GB1–MLL TAD T2857R]
*A* 1.03

*Q* Let us now turn to GNILPSDIMDFVLRNWPSMQALGESPESY (MLL TAD, residues 2842-2869 of human MLL, with the substitutions; Tyr residue attached at the C-terminus for concentration determination by UV absorption; also called K2855R/T2857W double mutant; source: E. coli BL21(DE3), purified (Ni-NTA); not shown: His6, N-terminal, kept) [His-tag–GB1–MLL TAD K2855R/T2857W]
*A* 1.04
